Value source: patent US6924302B2

# Tested System: CDK1:Cyclin-B (Homo sapiens)
# Construct: purchased New England Biolabs 6020; host or cells: insect cells
# Sequence (P06493 whole entry): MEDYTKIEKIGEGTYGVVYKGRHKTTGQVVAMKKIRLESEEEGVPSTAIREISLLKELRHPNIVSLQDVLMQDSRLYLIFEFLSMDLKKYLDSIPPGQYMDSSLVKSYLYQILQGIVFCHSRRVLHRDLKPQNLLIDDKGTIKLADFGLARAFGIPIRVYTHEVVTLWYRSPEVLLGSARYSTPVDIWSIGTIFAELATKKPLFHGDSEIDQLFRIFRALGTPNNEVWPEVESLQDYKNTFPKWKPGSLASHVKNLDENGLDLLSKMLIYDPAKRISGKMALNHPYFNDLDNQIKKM
# Sequence (P14635 whole entry partner): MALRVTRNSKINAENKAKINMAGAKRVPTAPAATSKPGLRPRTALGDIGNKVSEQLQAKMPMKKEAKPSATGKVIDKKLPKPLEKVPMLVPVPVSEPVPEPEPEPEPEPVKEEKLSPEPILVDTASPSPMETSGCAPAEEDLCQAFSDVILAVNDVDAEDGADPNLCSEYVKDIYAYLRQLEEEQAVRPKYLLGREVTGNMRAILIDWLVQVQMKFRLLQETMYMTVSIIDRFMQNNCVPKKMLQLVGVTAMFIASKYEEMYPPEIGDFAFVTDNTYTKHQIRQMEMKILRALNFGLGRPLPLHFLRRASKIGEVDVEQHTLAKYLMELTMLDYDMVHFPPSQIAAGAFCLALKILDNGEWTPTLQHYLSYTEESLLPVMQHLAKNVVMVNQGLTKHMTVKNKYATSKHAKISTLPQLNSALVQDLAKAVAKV
# Experiment Summary: CDK1 Screening Assay
# Format: biochemical
# Measurement Setup: Table 1; read-out: CDK1 IC50
Measured Endpoint: IC50 (µM)
Enter your answer as a number in µM; do not include the unit.

Illustrative cases are given below, each with its answer.
> print(dat)
                                   compound  numeric.result
1  CNS(=O)(=O)c1ccc(Nc2nc(N)n(C(=O)c3c(F)cccc3F)n2)cc1 [Cpd 80]          0.0452
2  Nc1nc(Nc2ccc(S(N)(=O)=O)cc2)nn1C(=O)c1ccccc1F [Cpd 4]          0.0223
3  Cc1ccc(F)c(C(=O)n2nc(Nc3ccc(S(=O)(=O)O)cc3)nc2N)c1F [Cpd 60]            1.37
4  Nc1nc(Nc2ccc(S(N)(=O)=O)cc2)nn1C(=O)c1cccs1 [Cpd 14]          0.0045

Okay, next one:
[ask] I have this compound here, Nc1nc(Nc2ccc(S(N)(=O)=O)cc2)nn1C(=O)c1ccccc1 [Cpd 12] , and I need its recorded IC50.
[reply] 0.0454
